- system: Peroxisome proliferator-activated receptor delta (Homo sapiens)
- methodSummary: Agonist activity at Gal4-fused human PPARdelta LBD transfected in HEK293T cells assessed as maximal relative activation incubated for 14 to 16 hrs by dual-Glo luciferase assay relative to L165,041
- Type: cell-based
- measurementSetup: time 14-16 hrs
Binary classification by max activation, with 30% as an inclusive lower bound for True; all other cases are False.

The following compounds have reported results that may help.
Cc1ccc(/N=N\c2ccc(OCCc3ccc(OC(C)(C)C(=O)O)cc3)cc2)cc1 : True
CC(C)(Oc1ccc(CCOc2ccc(/N=N\c3ccc(Cl)cc3)cc2)cc1)C(=O)O : False
Cc1ccc(/N=N\c2ccc(OCCc3ccc(OC(C)(C)C(=O)O)cc3)c(C)c2)cc1 : True

Now examine the next entry.
Is max activation for `CC(C)(Oc1ccc(CCOc2ccc(/N=N\c3ccccc3)cc2C(F)(F)F)cc1)C(=O)O` at or above 30%?
True

---

Measured EC50 of individual entries
- system: Peroxisome proliferator-activated receptor gamma (Homo sapiens)
- Sequence (P37231 whole entry, the tested form may be a part): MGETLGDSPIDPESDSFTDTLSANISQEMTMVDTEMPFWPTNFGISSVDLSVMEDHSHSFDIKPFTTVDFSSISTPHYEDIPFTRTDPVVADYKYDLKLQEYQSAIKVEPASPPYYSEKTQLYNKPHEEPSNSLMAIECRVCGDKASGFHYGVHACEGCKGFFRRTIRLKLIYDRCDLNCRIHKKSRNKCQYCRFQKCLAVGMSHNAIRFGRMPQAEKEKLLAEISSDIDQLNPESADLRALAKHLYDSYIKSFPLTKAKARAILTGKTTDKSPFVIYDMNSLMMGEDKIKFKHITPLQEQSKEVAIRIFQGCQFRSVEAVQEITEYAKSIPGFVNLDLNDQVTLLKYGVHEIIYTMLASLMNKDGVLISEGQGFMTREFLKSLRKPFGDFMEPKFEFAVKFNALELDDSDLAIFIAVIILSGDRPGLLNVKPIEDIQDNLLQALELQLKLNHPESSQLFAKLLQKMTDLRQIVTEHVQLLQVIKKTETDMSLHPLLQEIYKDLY
- methodSummary: Agonist activity at Gal4-fused human PPARgamma LBD transfected in HEK293T cells assessed as transcriptional activation incubated for 14 to 16 hrs by dual-Glo luciferase assay

Here is how some compounds turned out for EC50.
Cc1ccc(/N=N\c2ccc(OCCc3ccc(OC(C)(C)C(=O)O)cc3)cc2)cc1 : > 10 µM
CC(C)(Oc1ccc(CCOc2ccc(/N=N\c3ccc(Cl)cc3)cc2)cc1)C(=O)O : > 10 µM

# EC50 (compound: `CC(C)(Oc1ccc(CCOc2ccc(/N=N\c3ccccc3)cc2)cc1)C(=O)O` ) is 6 µM

---

- system: Peroxisome proliferator-activated receptor delta (Homo sapiens) (UniProt Q03181)
- Sequence (Q03181 whole entry, the tested form may be a part): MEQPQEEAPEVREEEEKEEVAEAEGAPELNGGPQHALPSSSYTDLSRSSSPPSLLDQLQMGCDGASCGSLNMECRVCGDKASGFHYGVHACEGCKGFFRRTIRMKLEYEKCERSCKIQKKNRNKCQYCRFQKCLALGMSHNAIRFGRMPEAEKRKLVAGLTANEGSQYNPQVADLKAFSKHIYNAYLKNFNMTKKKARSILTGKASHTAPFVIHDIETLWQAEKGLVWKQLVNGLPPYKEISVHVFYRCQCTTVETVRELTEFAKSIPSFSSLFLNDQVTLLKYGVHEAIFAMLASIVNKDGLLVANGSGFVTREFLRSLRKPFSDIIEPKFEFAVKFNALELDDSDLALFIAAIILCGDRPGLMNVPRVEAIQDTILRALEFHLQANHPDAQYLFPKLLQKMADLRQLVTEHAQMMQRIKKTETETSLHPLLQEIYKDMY
- methodSummary: Agonist activity at Gal4-fused human PPARdelta LBD transfected in HEK293T cells assessed as maximal relative activation incubated for 14 to 16 hrs by dual-Glo luciferase assay relative to L165,041
- Assay type: cell-based
- measurementSetup: filed as agonist, time 14-16 hrs
Measured max activation of individual entries
Field: value (include unit after the number)

CC(C)(Oc1ccc(CCOc2ccc(/N=N\c3ccccc3)cc2Cl)cc1)C(=O)O : 44%
CC(C)(Oc1ccc(CCOc2ccc(/N=N/c3ccccc3)cc2C(F)(F)F)cc1)C(=O)O : 45%
Cc1ccc(/N=N/c2ccc(OCCc3ccc(OC(C)(C)C(=O)O)cc3)c(C)c2)cc1 : 47%

# max activation (compound: `Cc1cc(/N=N/c2ccccc2)ccc1OCCc1ccc(OC(C)(C)C(=O)O)cc1` ) is 45%

# max activation (compound: `CC(C)(Oc1ccc(CCOc2ccc(/N=N/c3ccccc3)cc2Cl)cc1)C(=O)O` ) is 46%

# max activation (compound: `Cc1cc(/N=N\c2ccccc2)ccc1OCCc1ccc(OC(C)(C)C(=O)O)cc1` ) is 41%

# max activation (compound: `CC(C)c1ccc(/N=N/c2ccc(OCCc3ccc(OC(C)(C)C(=O)O)cc3)cc2)cc1` ) is 40%

---

- system: Peroxisome proliferator-activated receptor alpha (Homo sapiens)
- Sequence (Q07869 whole entry, the tested form may be a part): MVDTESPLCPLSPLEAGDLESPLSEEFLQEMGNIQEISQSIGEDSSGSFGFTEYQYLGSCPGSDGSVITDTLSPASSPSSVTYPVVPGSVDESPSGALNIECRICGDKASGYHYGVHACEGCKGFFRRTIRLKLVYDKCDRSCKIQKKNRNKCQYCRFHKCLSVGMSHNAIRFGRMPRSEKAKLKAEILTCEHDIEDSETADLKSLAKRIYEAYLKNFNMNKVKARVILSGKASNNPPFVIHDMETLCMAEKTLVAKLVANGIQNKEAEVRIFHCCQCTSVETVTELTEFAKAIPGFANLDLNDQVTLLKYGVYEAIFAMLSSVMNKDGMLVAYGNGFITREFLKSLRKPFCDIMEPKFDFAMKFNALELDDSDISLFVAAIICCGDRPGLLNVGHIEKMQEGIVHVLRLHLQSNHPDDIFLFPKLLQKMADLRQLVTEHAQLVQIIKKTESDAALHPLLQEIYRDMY
- methodSummary: Agonist activity at Gal4-fused human PPARalpha LBD transfected in HEK293T cells assessed as transcriptional activation incubated for 14 to 16 hrs by dual-Glo luciferase assay
- Assay type: cell-based
pEC50: −log10 of the molar value.
Binary classification by pEC50, with 7 as an inclusive lower bound for condition met; all other cases are condition not met.

CC(C)(Oc1ccc(CCOc2ccc(/N=N/c3ccccc3)cc2Cl)cc1)C(=O)O : condition met

Now examine the next entry.
Is pEC50 for `Cc1ccc(/N=N\c2ccc(OCCc3ccc(OC(C)(C)C(=O)O)cc3)c(C)c2)cc1` at or above 7?
condition not met
